# Read-out: glucuronosyltransferase (UGT1A1), UGT1A1 (gene 54658)
# METHOD_SUMMARY: CLD_UGT1A1_6hr: CellzDirect (CLD) Gene Expression Assay for glucuronosyltransferase (UGT1A1) at 6 hours (AID 2283672)
Inconclusive results are not listed. The source made the active and inactive calls. The calls were made as follows: active = hit-call score of the fitted dose curve at least 0.9, where 1 is the maximum; inconclusive = response in the unintended direction; inactive = score below 0.9.
Pick from active, inactive when you respond.

Answered cases to consult:
>>> answer_label("COP(=O)(OC)O/C(C)=C/C(=O)N(C)C")
"inactive"
>>> answer_label("CCOC(=O)C(C)OC(=O)c1cc(Oc2ccc(C(F)(F)F)cc2Cl)ccc1[N+](=O)[O-] (stereo not drawn)")
"inactive"
>>> answer_label("O=P(O)(O)CCCl")
"inactive"
>>> answer_label("CC(C)Oc1cccc(NC(=O)c2ccccc2C(F)(F)F)c1")
"inactive"
>>> answer_label("CCN(CC)C(=O)C(C)Oc1cccc2ccccc12 (stereo not drawn)")
"inactive"
>>> answer_label("O=c1n(Cl)c(=O)n(Cl)c(=O)n1Cl")
"inactive"

# input Outcome? Cc1cnc(C2=NC(C)(C(C)C)C(=O)N2)c(C(=O)O)c1 (stereo not drawn)
# output inactive

# input Query: recorded result category for COP(=S)(OC)SCn1nnc2ccccc2c1=O in this test
# output active

# input Which outcome was entered for the compound CS(=O)(=O)c1cc(C(F)(F)F)ccc1C(=O)c1cnoc1C1CC1 in this test?
# output inactive

# input What is the recorded call for this compound in the test? CC(C)(C)C(=O)C(Oc1ccc(Cl)cc1)n1cncn1 (stereo not drawn)
# output inactive

# input Which outcome was entered for the compound C=C(C)CN(CC)c1c([N+](=O)[O-])cc(C(F)(F)F)cc1[N+](=O)[O-] in this test?
# output inactive

# input Could you check what this test reported for Clc1cccc(C(Cl)(Cl)Cl)n1 ?
# output inactive

# input Which outcome did this test record for the compound CCCCC(O)(Cn1cncn1)c1ccc(Cl)cc1Cl (stereo not drawn) ?
# output inactive

###

# Read-out: Pro-epidermal growth factor (Homo sapiens)
# METHOD_SUMMARY: LTEA_HepaRG_EGF: Life Technologies and Expression Analysis (LTEA) Assay for Epidermal growth factor (EGF) using HepaRG (AID 2283489)
# COND: mRNA level, 48 h; actives raise or lower the signal
Calls of active or inactive are those of the source. Rule for the calls: active = hit-call score of the fitted dose curve at least 0.9, where 1 is the maximum; inactive = score below 0.9.
MEASURED_ATTRIBUTE: outcome

>>> measured_result("CCOc1cc(C(C)(C)C)ccc1C1COC(c2c(F)cccc2F)=N1 (stereo not drawn)")
"inactive"
>>> measured_result("CN=C=S")
"inactive"
>>> measured_result("CCCN(CC)CC1COC2(CCC(C(C)(C)C)CC2)O1 (stereo not drawn)")
"inactive"
>>> measured_result("Clc1nc(Cl)nc(Nc2ccccc2Cl)n1")
"inactive"
>>> measured_result("CC(C)(C)C(=O)C(Oc1ccc(Cl)cc1)n1cncn1 (stereo not drawn)")
"inactive"

# input Using the record for CC1(C)C(C(=O)OC(C#N)c2cccc(Oc3ccccc3)c2)C1(C)C (stereo not drawn) , report its outcome.
# output inactive

# input // returns reported outcome for input COP(=O)(OC)O/C(C)=C/C(=O)N(C)C
# output inactive

# input I have this compound here, CC1(C)CCC(=Cc2ccc(Cl)cc2)C1(O)Cn1cncn1 (stereo not drawn) , and I need its recorded outcome.
# output inactive

###

# ASSAY_SYSTEM: X-box-binding protein 1 (Homo sapiens) (UniProt P17861)
# Sequence (P17861 whole entry, looked up): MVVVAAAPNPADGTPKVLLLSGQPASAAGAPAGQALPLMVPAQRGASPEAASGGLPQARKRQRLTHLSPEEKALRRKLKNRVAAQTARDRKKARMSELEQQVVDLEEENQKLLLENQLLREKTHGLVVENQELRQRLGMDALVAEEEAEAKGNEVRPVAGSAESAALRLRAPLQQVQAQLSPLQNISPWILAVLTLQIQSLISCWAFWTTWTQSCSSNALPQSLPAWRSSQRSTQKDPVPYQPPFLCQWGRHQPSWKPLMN
# METHOD_SUMMARY: ATG_Xbp1_CIS: Attagene CIS-FACTORIAL HepG2 Assay for human X-box Binding Protein 1 (XBP1) (AID 2282972)
# COND: HepG2 XBP1 cis-element reporter, Attagene multiplex; actives raise or lower the signal
Active and inactive are the calls of the source. The calls were made as follows: active = hit-call score of the fitted dose curve at least 0.9, where 1 is the maximum; inactive = score below 0.9.
In this exercise, the only acceptable responses are yes for active, no for inactive

Sample answers from the record:
>>> answer_label("N#Cc1c[nH]cc1-c1cccc2c1OC(F)(F)O2")
"yes"
>>> answer_label("C=C(C)CN(CC)c1c([N+](=O)[O-])cc(C(F)(F)F)cc1[N+](=O)[O-]")
"no"
>>> answer_label("COC(=O)c1c(C(F)F)nc(C(F)(F)F)c(C2=NCCS2)c1CC(C)C")
"no"
>>> answer_label("O=c1n(Cl)c(=O)n(Cl)c(=O)n1Cl")
"no"
>>> answer_label("COP(=S)(OC)SCn1nnc2ccccc2c1=O")
"yes"
>>> answer_label("O=C(O)c1c(Cl)ccc2cc(Cl)cnc12")
"no"
>>> answer_label("O=C(Nc1ccccc1-c1ccc(Cl)cc1)c1cccnc1Cl")
"no"
>>> answer_label("CC1(C)CON(Cc2ccccc2Cl)C1=O")
"no"
>>> answer_label("CCOP(=O)(OCC)Oc1nc(Cl)c(Cl)cc1Cl")
"no"
>>> answer_label("CCC(C)n1c(=O)[nH]c(C)c(Br)c1=O (configuration not stated)")
"no"

# input Record request — test call for CN/C(=N\[N+](=O)[O-])NCc1cnc(Cl)s1
# output no

# input Give the logged outcome of this assay for the following compound: COC(=O)N(C(=O)N1CO[C@@]2(C(=O)OC)Cc3cc(Cl)ccc3C2=N1)c1ccc(OC(F)(F)F)cc1
# output no
